biological target: 5-HT1A receptor (Homo sapiens, UniProt P08908); assay: cAMP accumulation assay, 5-HT1A function; conditions: cells marked EC50 (agonist)
Sequence (P08908 whole entry): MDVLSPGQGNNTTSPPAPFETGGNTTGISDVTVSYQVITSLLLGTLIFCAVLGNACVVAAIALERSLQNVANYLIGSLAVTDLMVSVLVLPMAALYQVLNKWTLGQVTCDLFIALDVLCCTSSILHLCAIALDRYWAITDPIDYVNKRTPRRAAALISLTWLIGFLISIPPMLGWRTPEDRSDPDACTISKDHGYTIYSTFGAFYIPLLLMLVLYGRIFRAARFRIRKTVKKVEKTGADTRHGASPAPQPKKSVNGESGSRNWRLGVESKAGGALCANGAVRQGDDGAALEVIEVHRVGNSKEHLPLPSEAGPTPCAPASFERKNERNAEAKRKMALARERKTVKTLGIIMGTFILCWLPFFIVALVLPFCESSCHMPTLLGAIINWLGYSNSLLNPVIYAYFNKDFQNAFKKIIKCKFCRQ
pEC50: −log10 of the molar value.
Please use Condition met whenever pEC50 is not below 7, and Condition not met whenever it is.

Record excerpt, results attached:
Quick check, pEC50 >= 7? CCCN(CCCc1c[nH]c2ccc(F)cc12)C1CCc2c(F)ccc(OC)c2C1 (stereo not shown) [Compound 51]
Condition met

// inclusive: pEC50 at least 7? input: NC(=O)c1cccc2c1CC(N(CCCc1c[nH]c3ccc(F)cc13)C1CCC1)CO2 (stereo not shown) [Compound 134]
Condition met

I'd appreciate it if you could say whether COc1cccc2c1CC(N(CCCc1cn(C)c3ccc(F)cc13)CC1CC1)CO2 (stereo not shown) has pEC50 at least equal to 7.
Condition met

More entries:
Reported pEC50 reaches at least 7 for CCCN(CCCc1c[nH]c2ccc(F)cc12)[C@H]1CCc2cccc(OC)c2C1 [Compound 47a] ?
Condition met

Tell me whether pEC50 is at least 7 here: NC(=O)c1ccc(F)c2c1OCC(N(CCCc1c[nH]c3c(F)cc(F)cc13)CC1CC1)C2 (stereo not shown)
Condition met

Please indicate if the recorded pEC50 for CCCN(CCCc1c[nH]c2ccc(OC)cc12)C1COc2c(F)ccc(C(N)=O)c2C1 (stereo not shown) meets or exceeds 7.
Condition met

pEC50 >= 7 for CCN(CCCCc1coc2ccccc12)C1COc2cccc(OC)c2C1 (stereo not shown) ?
Condition met

Does the compound CCCN(CCCc1c[nH]c2ccc(F)cc12)C1COc2c(F)ccc(C(N)=O)c2C1 (single isomer, unassigned; (+)) [Compound 2b] have recorded pEC50 that is 7 or more?
Condition met

====

target: cloned human 5-HT1A receptors (Homo sapiens); construct: expressed in transfected cells; test: 35S-GTPγS binding assay, 5-HT1A function; assay type: biochemical; conditions: maximum inhibitory effect, in brackets after IC50; read-out: 5-HT1A Function GTPγS (Imax)
Collected Emax values appear next to each entry.
Give just the number in %; leave the unit off.

Tested on cloned human 5-HT1A receptors (Homo sapiens), the item CNC(=O)c1ccc(F)c2c1C[C@H](N(CCCCc1c[nH]c3ccc(F)cc13)C1CCC1)CO2 [Compound 145a] showed Emax equal to 100

Value sought: Emax, system cloned human 5-HT1A receptors (Homo sapiens), item NC(=O)c1ccc(F)c2c1CC(N(CCCc1c[nH]c3ccc(Cl)cc13)CC1CC1)CO2 (centres unmarked) . Result: 69

Fill in: cloned human 5-HT1A receptors (Homo sapiens) Emax for N#Cc1ccc2[nH]cc(CCCN(CC3CC3)[C@H]3COc4c(F)ccc(C(N)=O)c4C3)c2c1 [Compound 98b] = 99

Note to self: Emax of CCCN(C(C)CCc1c[nH]c2ccc(C#N)cc12)C1COc2c(F)ccc(C(N)=O)c2C1 (single isomer, unassigned) [Compound 13a] with cloned human 5-HT1A receptors (Homo sapiens) was 100

Value sought: Emax, system cloned human 5-HT1A receptors (Homo sapiens), item NC(=O)c1ccc(F)c2c1CC(N(CCCc1c[nH]c3cc(F)ccc13)C1CCC1)CO2 (centres unmarked) . Result: 100

The molecule NC(=O)c1ccc(F)c2c1C[C@@H](N(CCCCc1c[nH]c3ccc(F)cc13)C1CCC1)CO2 [Compound 83a] , when measured on cloned human 5-HT1A receptors (Homo sapiens), yielded Emax of 100

Lab note: molecule CCCN(CCCCc1c[nH]c2ccc(F)cc12)C1COc2c(F)ccc(C(N)=O)c2C1 (centres unmarked) tested on cloned human 5-HT1A receptors (Homo sapiens); recorded Emax was 100

Result for NC(=O)c1ccc(F)c2c1CC(N(CCc1c[nH]c3ccc(F)cc13)CC1CC1)CO2 (centres unmarked) , tested on cloned human 5-HT1A receptors (Homo sapiens), Emax: 100

====

Where a name gives a salt, the structure may show the parent alone.
Measured metric: melting point

Form field melting point, entry CCCN(CCCc1c[nH]c2ccc(F)cc12)C1COc2c(F)ccc(C(=O)NC)c2C1 (stereo not drawn) (as salt: hydrochloride) : 123 °C (dec.)

Query NC(=O)c1ccc(F)c2c1OCC(N(CCCc1c[nH]c3ccc(F)cc13)CC1CC1)C2 (stereo not drawn) (as salt: hydrochloride) yields melting point of 123 °C (dec.)

The compound identified as NC(=O)c1ccc(F)c2c1CC(N(CCCc1c[nH]c3cc(F)ccc13)C1CCC1)CO2 (stereo not drawn) (as salt: hydrochloride) registered its melting point at 126 °C (dec.)

---
Recorded result, CC(C)NC(=O)c1ccc(F)c2c1CC(N(CCCc1c[nH]c3ccc(F)cc13)C1CCC1)CO2 (stereo not drawn) (as salt: hydrochloride) , melting point: 127 °C (dec.)

# melting point of CCCN(CCCc1c[nH]c2ccc(F)cc12)[C@@H]1CCc2cccc(OC)c2C1 (as salt: hydrochloride) [Compound 47b] = 110 °C (dec.)

Value of measured melting point for the entry NC(=O)c1ccc(F)c2c1C[C@@H](N(CCCc1c[nH]c3c(F)cc(F)cc13)CC1CC1)CO2 (as salt: hydrochloride) : 147 to 151 °C

====

5-HT1A Function GTPγS (Imax) reference
target: cloned human 5-HT1A receptors (Homo sapiens); construct: expressed in transfected cells; assay: 35S-GTPγS binding assay, 5-HT1A function; type: biochemical; conditions: maximum inhibitory effect, in brackets after IC50
Field note: include the unit after the figure.

A selection of reference data follows.
For NC(=O)c1ccc(F)c2c1CC(N(CC1CCc3[nH]c4ccc(F)cc4c3C1)C1CCC1)CO2 (single isomer, unassigned; (+)) [Compound 174b] the molecule record lists 5-HT1A Function GTPγS (Imax) as 67%

The value of 5-HT1A Function GTPγS (Imax) measured for the molecule CCCN(C(C)CCCc1c[nH]c2ccc(F)cc12)C1COc2c(F)ccc(C(N)=O)c2C1 (single isomer, unassigned; (-)) [Compound 14b] turned out to be 100%

As a next step, examine the molecule that follows.
// 5-HT1A Function GTPγS (Imax) value for NC(=O)c1ccc(F)c2c1C[C@@H](NCC1CCc3[nH]c4ccc(F)cc4c3C1)CO2 (single isomer, unassigned; (-)) [Compound 175a] : 100%

====

biological target: 5-HT1A receptor (Homo sapiens, UniProt P08908); assay: 5-HT1A receptor affinity: displacement of [3H] 8-OH-DPAT; type: binding; parameters: expressed in transfected cells; conditions: displacement of [3H] 8-OH-DPAT; CHO cells stably transfected with human 5-HT1A receptors; read-out: 5-HT1A Receptor Affinity Ki
Measured metric: Ki

Ki value, target or system 5-HT1A receptor (Homo sapiens, UniProt P08908), for CCCN(CCCc1c[nH]c2ccc(F)cc12)C1COc2c(F)ccc(C(N)=O)c2C1 (single isomer, unassigned; (-)) [Compound 2a] : 1.48 nM

Test item NC(=O)c1ccc(F)c2c1C[C@@H](N(CC1CC1)CC1CCc3[nH]c4ccc(F)cc4c3C1)CO2 (single isomer, unassigned; (-)) [Compound 178a] ; 5-HT1A receptor (Homo sapiens, UniProt P08908); reported Ki was 117 nM

Lab entry: 5-HT1A receptor (Homo sapiens, UniProt P08908) assay, compound CCN(CCCc1c[nH]c2ccc(OC)cc12)C1COc2c(F)ccc(C(N)=O)c2C1 (stereo not drawn) [Compound 105] , Ki = 24.3 nM

O=C(NC1CCC1)c1cccc2c1CC(N(CCCc1c[nH]c3c(F)cc(F)cc13)C1CCC1)CO2 (stereo not drawn) [Compound 143] on 5-HT1A receptor (Homo sapiens, UniProt P08908) gives Ki = 31.9 nM

The value of Ki recorded for COC(=O)c1ccc(F)c2c1C[C@@H](NCCCCc1c[nH]c3ccc(F)cc13)CO2 [Compound 57b] when tested on 5-HT1A receptor (Homo sapiens, UniProt P08908) reads 19.4 nM

The compound CNC(=O)c1ccc(F)c2c1CC(N(CCCCc1c[nH]c3ccc(F)cc13)C1CCC1)CO2 (stereo not drawn) [Compound 95] on 5-HT1A receptor (Homo sapiens, UniProt P08908): Ki was 10 nM

Further cases:
Record CCN(CCCc1coc2c(OC)cccc12)C1COc2c(F)ccc(C(N)=O)c2C1 (stereo not drawn) [Compound 162] / 5-HT1A receptor (Homo sapiens, UniProt P08908), Ki recorded as 2.09 nM

Reported Ki (5-HT1A receptor (Homo sapiens, UniProt P08908)) for entry CCN(CCCCn1ccc2cccc(F)c21)C1COc2c(F)ccc(C(N)=O)c2C1 (stereo not drawn) [Compound 189] is 37.4 nM

====

Catalogue of EC50 readings, one per entry.
molecular target: cloned human 5-HT1A receptors (Homo sapiens, UniProt P08908); assay: 35S-GTPγS binding assay, 5-HT1A function; settings: agonist potency
Sequence (P08908 whole entry): as above
Numbers only here, please. The scale is nM.

So for O=C(Nc1ccccc1)c1ccc(F)c2c1CC(N(CCCc1c[nH]c3ccc(F)cc13)C1CCC1)CO2 (centres unmarked) , the logged EC50 turned out to be 1800

Continuing:
// recorded EC50 for NC(=O)c1ccc(F)c2c1OCC(N(CCCCc1c[nH]c3ccc(F)cc13)CC1CC1)C2 (centres unmarked) : 2800

For CCCN(CCCc1c[nH]c2ccc(Cl)cc12)C1COc2c(F)ccc(C(N)=O)c2C1 (centres unmarked) the molecule record lists EC50 as 61.2

Entry NC(=O)c1ccc(F)c2c1OCC(N(CCCc1c[nH]c3ccc(F)cc13)CC1CC1)C2 (centres unmarked) , EC50 reported as 3820

For reference, reported EC50 for NC(=O)c1ccc(F)c2c1OCC(NCCCc1c[nH]c3ccc(F)cc13)C2 (centres unmarked) stands at 3160

Value of EC50 reported for the molecule CCN(CCCc1c[nH]c2ccc(F)cc12)C1COc2cccc(OC)c2C1 (centres unmarked) is 53.5

Looking up CCN(CCCCc1c[nH]c2ccc(F)cc12)C1COc2cccc(OC)c2C1 (centres unmarked) , I see its EC50 listed as 123

Per the records, this molecule ( CCCN(C(C)CCc1c[nH]c2ccc(F)cc12)C1COc2c(F)ccc(C(N)=O)c2C1 (single isomer, unassigned) [Compound 12b] ) has EC50 equal to 366
